Data provenance: the supplement of paper PMC10307832

# Tested on: Calu-6
# ASSAY_COMMENT: relative viability (nuclei count vs DMSO), 5 days (fraction); higher = more cells survive
# CONDITION_DESCRIPTION: first compound 0.01581 µM
READOUT_NAME: relative viability
Give bare numbers.

// worked examples, relative viability included
| MOLECULE | relative viability |
| --- | --- |
| COc1cc2nccc(Oc3ccc(NC(=O)Nc4cc(C)on4)c(Cl)c3)c2cc1OC [Tivozanib] + C[C@]1(O)C[C@@H](c2nc(-c3ccc4ccc(-c5ccccc5)nc4c3)c3c(N)nccn32)C1 [Linsitinib] (partner 1 µM) | 0.941 |
| Nc1ccn([C@@H]2O[C@H](CO)[C@@H](O)[C@@H]2O)c(=O)n1 [Cytarabine] + C[C@]1(O)C[C@@H](c2nc(-c3ccc4ccc(-c5ccccc5)nc4c3)c3c(N)nccn32)C1 [Linsitinib] (partner 1 µM) | 0.871 |
| COc1cc2nccc(Oc3ccc(NC(=O)Nc4cc(C)on4)c(Cl)c3)c2cc1OC [Tivozanib] + Cc1nc(NC(=O)N2CCC[C@H]2C(N)=O)sc1-c1ccnc(C(C)(C)C(F)(F)F)c1 [Alpelisib] (partner 2 µM) | 0.969 |
| COc1cc2nccc(Oc3ccc(NC(=O)Nc4cc(C)on4)c(Cl)c3)c2cc1OC [Tivozanib] + CS(=O)(=O)N1CCN(Cc2cc3nc(-c4cccc5[nH]ncc45)nc(N4CCOCC4)c3s2)CC1 [Pictilisib] (partner 1 µM) | 0.979 |
| COc1cc2nccc(Oc3ccc(NC(=O)Nc4cc(C)on4)c(Cl)c3)c2cc1OC [Tivozanib] + CS(=O)(=O)CCNCc1ccc(-c2ccc3ncnc(Nc4ccc(OCc5cccc(F)c5)c(Cl)c4)c3c2)o1 [Lapatinib] (partner 2 µM) | 1.08 |

Consider now this further molecule.
Can you look up relative viability on Calu-6 for Nc1ccn([C@@H]2O[C@H](CO)[C@@H](O)[C@@H]2O)c(=O)n1 [Cytarabine] + C[C@@H](Oc1cc(-c2cnn(C3CCNCC3)c2)cnc1N)c1c(Cl)ccc(F)c1Cl [Crizotinib] (partner 1 µM) ?
0.706
